This collection of values is drawn from BindingDB's records for doi:10.7270/Q2TB15DB.

target: Endoribonuclease toxin MazF (Escherichia coli (strain K12)); assay: substrate-only fluorescence increase artefacts – biochemical, single-stranded RNase substrate, counter-screen for MazEF activator project, dose response (AID 588502)
pEC50: −log10 of the molar value.

{"COMPOUND": "O=[N+]([O-])c1cc/c(=N\\c2ccccc2O)c2no[nH]c1-2", "pEC50": "< 4.00"}
{"COMPOUND": "Cn1c(C(C#N)C(=O)COc2ccc3ccccc3c2)nc2ccccc21 (stereo not given)", "pEC50": "< 4.00"}
{"COMPOUND": "O=C1N=c2ccccc2=C1NNc1ccc(F)cc1", "pEC50": "< 4.00"}
{"COMPOUND": "C=CCOc1cccc(C2C(C(=O)c3ccc(C)o3)C(=O)C(=O)N2c2nccs2)c1 (stereo not given)", "pEC50": "< 4.00"}
{"COMPOUND": "COc1ccc(C=C2CCCC(C(=O)C(F)(F)F)C2=O)cc1 (stereo not given)", "pEC50": 4.47}

---

biological target: Endoribonuclease toxin MazF (Escherichia coli (strain K12)); assay: substrate-only fluorescence increase artefacts – biochemical, single-stranded RNase substrate, counter-screen for MazEF activator project, dose response (AID 588502)
Lab note - cut at 30 µM for EC50: condition met if strictly below, condition not met if not.

{"COMPOUND": "Cc1[nH]c2ccccc2c1/C=C1\\N=C(c2ccc(C(F)(F)F)cc2)OC1=O [SMR000152363]", "SYSTEM_TESTED": "Endoribonuclease toxin MazF (Escherichia coli (strain K12))", "ASSIGNED_CATEGORY": "condition not met"}
{"COMPOUND": "O=c1cc2oc(O)c3cc(O)c(O)c(O)c3c-2oc1=O", "SYSTEM_TESTED": "Endoribonuclease toxin MazF (Escherichia coli (strain K12))", "ASSIGNED_CATEGORY": "condition not met"}
{"COMPOUND": "O=C1Nc2ccccc2C1=NNc1ccccc1 [3-(phenylhydrazo)-2-indolone]", "SYSTEM_TESTED": "Endoribonuclease toxin MazF (Escherichia coli (strain K12))", "ASSIGNED_CATEGORY": "condition not met"}
{"COMPOUND": "CCCCOc1cccc(C2C(C(=O)c3ccc(C)o3)C(=O)C(=O)N2c2nnc(C)s2)c1 (centres undefined)", "SYSTEM_TESTED": "Endoribonuclease toxin MazF (Escherichia coli (strain K12))", "ASSIGNED_CATEGORY": "condition met"}
{"COMPOUND": "Cc1[nH]c2ccccc2c1/C=C1\\N=C(c2ccc(F)cc2)OC1=O", "SYSTEM_TESTED": "Endoribonuclease toxin MazF (Escherichia coli (strain K12))", "ASSIGNED_CATEGORY": "condition not met"}
{"COMPOUND": "N#CC(C(=O)c1ccc([N+](=O)[O-])o1)c1nc2ccccc2[nH]1 (centres undefined)", "SYSTEM_TESTED": "Endoribonuclease toxin MazF (Escherichia coli (strain K12))", "ASSIGNED_CATEGORY": "condition met"}
{"COMPOUND": "O=C1NC(=O)N(C2CCCCC2)C(=O)C1=CCC=Nc1ccccc1", "SYSTEM_TESTED": "Endoribonuclease toxin MazF (Escherichia coli (strain K12))", "ASSIGNED_CATEGORY": "condition met"}
{"COMPOUND": "CCSc1nnc(N2C(=O)C(=O)C(C(=O)c3ccco3)C2c2cccc(OC)c2)s1 (centres undefined) [MLS001140620]", "SYSTEM_TESTED": "Endoribonuclease toxin MazF (Escherichia coli (strain K12))", "ASSIGNED_CATEGORY": "condition not met"}

---

pEC50 values by entry
target: Endoribonuclease toxin MazF (Escherichia coli (strain K12)); test: substrate-only fluorescence increase artefacts – biochemical, single-stranded RNase substrate, counter-screen for MazEF activator project, dose response (AID 588502)
pEC50: −log10 of the molar value.

{"COMPOUND": "Cc1ccc(C2=Nc3nnnn3C(c3ccc(N(C)C)cc3)C2)cc1 (centres undefined)", "COMPARISON_SYMBOL": "<", "pEC50": 4.00}
{"COMPOUND": "O=C(c1ccc2ccccc2n1)c1[nH][nH]c2c(O)n(-c3cccc(C(F)(F)F)c3)c(=O)c1-2", "COMPARISON_SYMBOL": "<", "pEC50": 4.00}
{"COMPOUND": "O=C1Nc2ccc([N+](=O)[O-])cc2C1=NNc1ccc(F)cc1", "COMPARISON_SYMBOL": "=", "pEC50": 4.69}
{"COMPOUND": "COc1cc2c(cc1OC)C(CC(=O)c1ccc([N+](=O)[O-])c(C)c1)=NCC2", "COMPARISON_SYMBOL": "=", "pEC50": 4.36}
{"COMPOUND": "CCCN1C(=O)C(=NNc2ccc3ccccc3n2)c2ccccc21", "COMPARISON_SYMBOL": "<", "pEC50": 4.00}
{"COMPOUND": "COc1cc(C2c3c(-c4cccs4)n[nH]c3OC(=N)C2C#N)cc(OC)c1O (centres undefined)", "COMPARISON_SYMBOL": "=", "pEC50": 4.88}
{"COMPOUND": "COc1cccc(C2=Nc3nnnn3C(c3ccc(N(C)C)cc3)C2)c1 (centres undefined)", "COMPARISON_SYMBOL": "<", "pEC50": 4.00}
{"COMPOUND": "CCN(CC)c1ccc(CN=Nc2ccc([N+](=O)[O-])cn2)cc1", "COMPARISON_SYMBOL": "=", "pEC50": 4.15}
{"COMPOUND": "CSc1ccc(C2C(C(=O)c3ccco3)C(=O)C(=O)N2c2nnc(SC)s2)cc1 (centres undefined)", "COMPARISON_SYMBOL": "<", "pEC50": 4.00}
{"COMPOUND": "Cc1ccc(S(=O)(=O)N[N-][C+]2CCC(C(C)(C)C)CC2)cc1[N+](=O)[O-]", "COMPARISON_SYMBOL": "<", "pEC50": 4.00}
{"COMPOUND": "O=C1N=c2ccccc2=C1NNc1cccc(Cl)c1", "COMPARISON_SYMBOL": "<", "pEC50": 4.00}
{"COMPOUND": "COc1ccc(N=CCC(=O)c2ccc(C)cc2)cc1OC", "COMPARISON_SYMBOL": "=", "pEC50": 4.60}
{"COMPOUND": "CCOC(=O)c1c(NC=C2C(=O)NC(=O)NC2=O)sc2c1CCC2", "COMPARISON_SYMBOL": "<", "pEC50": 4.00}
{"COMPOUND": "Cc1cccc(NNC2=c3cc(F)ccc3=NC2=O)c1", "COMPARISON_SYMBOL": "<", "pEC50": 4.00}
{"COMPOUND": "O=c1[nH]c(N=NCc2ccc(F)cc2)nc2ccccc12", "COMPARISON_SYMBOL": "<", "pEC50": 4.00}
{"COMPOUND": "CCOc1ccc(N=CCC(=O)c2ccc(OC)cc2)c([N+](=O)[O-])c1", "COMPARISON_SYMBOL": "=", "pEC50": 5.20}
{"COMPOUND": "COc1ccc(CN=Nc2ccc([N+](=O)[O-])cc2S(=O)(=O)N2CCN(C)CC2)cc1", "COMPARISON_SYMBOL": "=", "pEC50": 5.07}
{"COMPOUND": "O=[N+]([O-])c1ccc(N=NCc2cccc3ccccc23)nc1", "COMPARISON_SYMBOL": "=", "pEC50": 4.34}
{"COMPOUND": "CC1CC(=O)C2=C(C1)OC(=N)C(C#N)C2c1coc2ccccc2c1=O (centres undefined)", "COMPARISON_SYMBOL": "<", "pEC50": 4.00}
{"COMPOUND": "Cc1ccc2nc(N3C(=O)C(=O)C(C(=O)c4ccco4)C3c3cccs3)sc2c1 (centres undefined)", "COMPARISON_SYMBOL": "<", "pEC50": 4.00}
{"COMPOUND": "CCCCN1C(=O)C(=NNc2ccccc2O)c2ccccc21", "COMPARISON_SYMBOL": "=", "pEC50": 4.16}
{"COMPOUND": "CCN1C(=O)C(C=NN=Cc2ccccc2)c2ccc(C3=NNC(=O)CC3)cc21 (centres undefined)", "COMPARISON_SYMBOL": "<", "pEC50": 4.00}
{"COMPOUND": "COc1ccc(Nc2oc3cc(=O)ccc-3cc2C(=O)NCC2CCCO2)c(OC)c1 (centres undefined)", "COMPARISON_SYMBOL": "<", "pEC50": 4.00}
{"COMPOUND": "O=[N+]([O-])c1ccc(N=NCc2ccccc2)c(F)c1", "COMPARISON_SYMBOL": "=", "pEC50": 4.57}

---

pEC50 values by entry
Target: Endoribonuclease toxin MazF (Escherichia coli (strain K12))
Sequence (P0AE70 whole entry): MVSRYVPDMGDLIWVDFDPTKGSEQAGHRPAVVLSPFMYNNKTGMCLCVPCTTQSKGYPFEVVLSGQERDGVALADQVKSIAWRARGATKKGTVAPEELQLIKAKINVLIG
Experiment: substrate-only fluorescence increase artefacts – biochemical, single-stranded RNase substrate, counter-screen for MazEF activator project, dose response (AID 588502)
pEC50: −log10 of the molar value.
REPORTED_PROPERTY: pEC50

{"MOLECULE": "O=C1N=c2ccc(Br)cc2=C1NNc1ccc(F)cc1", "SYSTEM_TESTED": "Endoribonuclease toxin MazF (Escherichia coli (strain K12))", "MEASURED": 4.34}
{"MOLECULE": "CCOc1cccc(C2C(C(=O)c3ccc(C)o3)C(=O)C(=O)N2c2nccs2)c1 (stereo not given)", "SYSTEM_TESTED": "Endoribonuclease toxin MazF (Escherichia coli (strain K12))", "MEASURED": "< 4.00"}
{"MOLECULE": "Cc1oc(C)c2c(=O)ccc3c(c12)OC(=N)C(C#N)C3c1ccccc1 (stereo not given)", "SYSTEM_TESTED": "Endoribonuclease toxin MazF (Escherichia coli (strain K12))", "MEASURED": "< 4.00"}
{"MOLECULE": "O=C(c1ccc2ccccc2n1)c1[nH][nH]c2c(O)n(-c3cccc(F)c3)c(=O)c1-2", "SYSTEM_TESTED": "Endoribonuclease toxin MazF (Escherichia coli (strain K12))", "MEASURED": "< 4.00"}
{"MOLECULE": "CSc1nnc(N2C(=O)C(=O)C(C(=O)c3ccc(C)o3)C2c2ccc(C)cc2)s1 (stereo not given)", "SYSTEM_TESTED": "Endoribonuclease toxin MazF (Escherichia coli (strain K12))", "MEASURED": "< 4.00"}
{"MOLECULE": "O=C1N=c2ccccc2=C1NNc1ccccc1F", "SYSTEM_TESTED": "Endoribonuclease toxin MazF (Escherichia coli (strain K12))", "MEASURED": 4.50}
{"MOLECULE": "C=c1[nH]n(-c2ccccc2)c(=O)c1=Cc1cc(C)n(C2CC2)c1C", "SYSTEM_TESTED": "Endoribonuclease toxin MazF (Escherichia coli (strain K12))", "MEASURED": "< 4.00"}
{"MOLECULE": "Cc1ccc(Cl)c2c1=NC(=O)C=2NNc1ccccc1", "SYSTEM_TESTED": "Endoribonuclease toxin MazF (Escherichia coli (strain K12))", "MEASURED": 5.09}
{"MOLECULE": "N=C(N)C1=CC(=O)/C(=C/C=c2ccc(=C(N)N)cc2)C=C1", "SYSTEM_TESTED": "Endoribonuclease toxin MazF (Escherichia coli (strain K12))", "MEASURED": "< 4.00"}
{"MOLECULE": "Oc1ccc2ccccc2c1C=Nn1c(O)csc1=S", "SYSTEM_TESTED": "Endoribonuclease toxin MazF (Escherichia coli (strain K12))", "MEASURED": "< 4.00"}
